Reported IC50 is given for each of the following compounds.
Molecular target: Histamine H3 receptor (Homo sapiens, UniProt Q9Y5N1)
Sequence (Q9Y5N1 whole entry): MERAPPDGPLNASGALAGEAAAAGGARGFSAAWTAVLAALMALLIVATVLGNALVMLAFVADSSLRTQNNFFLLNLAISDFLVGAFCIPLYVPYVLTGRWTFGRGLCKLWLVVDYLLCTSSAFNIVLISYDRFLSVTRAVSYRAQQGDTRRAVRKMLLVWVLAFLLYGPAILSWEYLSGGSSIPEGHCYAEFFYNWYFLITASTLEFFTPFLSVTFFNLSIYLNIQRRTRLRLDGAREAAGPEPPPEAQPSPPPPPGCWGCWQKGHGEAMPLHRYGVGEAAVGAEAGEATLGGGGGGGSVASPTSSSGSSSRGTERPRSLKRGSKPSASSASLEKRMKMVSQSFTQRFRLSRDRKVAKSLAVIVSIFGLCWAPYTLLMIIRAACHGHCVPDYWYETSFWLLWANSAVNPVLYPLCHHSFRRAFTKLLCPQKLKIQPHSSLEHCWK
Assay: Antagonist activity at human H3 receptor expressed in CHOK1 cells incubated for 10 mins by HTRF assay
Type: cell-based
Write the figure, then the unit, nothing else.

Example compounds with recorded IC50:
compound=Cc1nn(CCOCCOCCNC(=O)OC(C)(C)C)cc1-c1ccc2cc(CCN3CCC[C@H]3C)ccc2n1 measurement_name=IC50 test_result="41 nM"
compound=Cc1nn(CCOCCOCCNC(=O)CS(=O)(=O)O)cc1-c1ccc2cc(CCN3CCC[C@H]3C)ccc2n1 measurement_name=IC50 test_result="45 nM"

Challenge: What value of measured IC50 is listed for Cc1nn(CCOCCOCCNC(=O)C2C(C(=O)O)C(C(=O)O)C2C(=O)O)cc1-c1ccc2cc(CCN3CCC[C@H]3C)ccc2n1 (stereo not given in full) ?
Response given: 150 nM

Challenge: What value of measured IC50 is listed for `Cc1nn(CCOCCOCCN)cc1-c1ccc2cc(CCN3CCC[C@H]3C)ccc2n1` ?
Response given: 1 nM

Challenge: What value of measured IC50 is listed for Cc1nn(CCOCCOCCNC(=O)CCCCCC2(C)C(/C=C/C=C/C=C3/N(CCCS(=O)(=O)O)c4ccc(S(=O)(=O)O)cc4C3(C)C)=[N+](CCCS(=O)(=O)[O-])c3ccc(S(=O)(=O)O)cc32)cc1-c1ccc2cc(CCN3CCC[C@H]3C)ccc2n1 (stereo not given in full) ?
Response given: 13 nM
